target-system: MAST2, Q6P0Q8
Sequence (Q6P0Q8 1099-1202): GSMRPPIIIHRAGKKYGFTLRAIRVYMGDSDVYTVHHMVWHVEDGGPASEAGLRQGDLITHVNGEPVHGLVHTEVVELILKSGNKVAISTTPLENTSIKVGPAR
measurement-notes: holdup assay
Design: key: below the threshold = too weak to quantify, mostly under pKd 3.1 to 4
conditions-used: plain residues with an end cap or a label only (N-terminal biotin on a linker: ado-ado)

- binder: "THHRKIHTRV [ZNF599, Q96NL3]"
  pKd: 5.03
- binder: "KPDKQEEFYA [SDC3, O75056]"
  pKd: 4.17
- binder: "ADEMICITTL [CACNA1D, Q01668]"
  pKd: 5.76
- binder: "PGKKPEDSRV [SLCO2B1, O94956]"
  pKd: 4.27
- binder: "EPAKETTTNV [SLC2A3, P11169]"
  pKd: 5.06
- binder: "WAKEKQHTRL [SLC17A1, Q14916]"
  pKd: 5.45
- binder: "FLVTEFNVML [DFNB31, Q9P202]"
  pKd: 5.15
- binder: "RDYTQSSSSL [GRM5, P41594]"
  pKd: 5.15
- binder: "HLSTRQGTCV [ATRNL1, Q5VV63]"
  pKd: 4.94
- binder: "KKTPVSRSHL [SLC22A3, O75751]"
  pKd: 4.69
- binder: "PKSNSSKEYV [CLDN7, O95471]"
  pKd: 3.65
- binder: "VISSDDLTEL [CAPN6, Q9Y6Q1]"
  pKd: 5.67
